Where do these numbers come from? They come from PubChem BioAssay (NCI).

- assay: NCI Yeast Anticancer Drug Screen. Data for the mlh1 rad18 strain (AID 175)
- experimental-parameters: S. cerevisiae mlh1 rad18 strain growth inhibition; at 5.0 µM (retest, dose inferred, filed as 0.5); hits give high values
- Procedure: Growth inhibition of yeast strains with defined genetic alterations is measured as a screen for potential anti-cancer activity. Selected strains with alterations in DNA damage repair or cell cycle control were exposed to compounds and growth inhibition was measured relative to vehicle treated controls. The strain used in this assay is mlh1 rad18
About 79,000 compounds went through this panel and 15% of them were active in at least one assay; those are over-represented in the sample as a whole.
measure-name: growth inhibition (%)
Could you give me the number in %? Just the number is fine.

The following compounds have reported results that may help.
N#C/C=C/C=C/C#N = -4
CC(c1ccc2cccc(F)c2c1)c1ccccc1C(=O)O (centres undefined) = 5
O=C(O)C1(Cc2ccc3c(c2)CCC3)Cc2cc3c(cc2C1)CCC3 = 14

query: Look up and state reported growth inhibition for `O=[N+]([O-])c1c(O)cccc1O`
result: 36

query: Determine its reported growth inhibition: Cc1ccc(C)c(C2CCCCC2O)c1 (centres undefined)
result: 0
